# STUDY_TARGET: Hemoglobin HbA (Homo sapiens) (UniProt P69905+P68871)
# Sequence (P68871 2-147 partner limits assumed): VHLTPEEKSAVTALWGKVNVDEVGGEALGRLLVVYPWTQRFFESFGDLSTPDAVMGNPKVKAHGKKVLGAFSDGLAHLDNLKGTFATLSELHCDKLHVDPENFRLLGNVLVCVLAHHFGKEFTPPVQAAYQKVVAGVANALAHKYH
# Sequence (P69905 2-142 limits assumed): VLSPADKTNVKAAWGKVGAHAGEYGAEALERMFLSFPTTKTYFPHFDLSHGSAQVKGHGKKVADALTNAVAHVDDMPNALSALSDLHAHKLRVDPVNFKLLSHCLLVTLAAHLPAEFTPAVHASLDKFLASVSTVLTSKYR
# PROTOCOL_NOTES: Ratio of P50e to P50c (P50 control value with no effector present, 5 mmHg)
# Format: functional
MEASURED_PROPERTY: P50e/P50c

Consider the reported P50e/P50c for these compounds:
>>> print(df.to_string())
                                   compound  reported
0  CCC(C)(Oc1ccc(CC(=O)Nc2cc(C)cc(C)c2)cc1)C(=O)O (stereo in doubt; 10)       2.7
1  Cc1cc(C)cc(NC(=O)Cc2ccc(OC3(C(=O)O)CCOC3C)cc2)c1 (configuration not stated)       1.5
2  CCC(Oc1ccc(CC(=O)Nc2cc(C)cc(C)c2)cc1)C(=O)O (stereo in doubt; 32)       2.6
3  CC1CCCC1(Oc1ccc(CC(=O)Nc2ccc3c(c2)CCC3)cc1)C(=O)O (configuration not stated)       2.8

(1) CCC(Oc1ccc(CC(=O)Nc2cc(C)cc(C)c2)cc1)C(=O)O (single isomer, unassigned; (+))
(2) CCC(Oc1ccc(CC(=O)Nc2cc(C)cc(C)c2)cc1)C(=O)O (single isomer, unassigned; (-))
Could you tell me which of 1 and 2 has the lower P50e/P50c reading? Respond with the label that goes with your answer.
2

* * *

# STUDY_TARGET: Hemoglobin HbA (Homo sapiens) (UniProt P69905+P68871)
# PROTOCOL_NOTES: Ratio of P50e to P50c (P50 control value with no effector present, 5 mmHg)
# Format: functional
MEASURED_PROPERTY: P50e/P50c

For orientation, consider the following solved cases.
                                   compound  measured_property  reported
0  Cc1cc(C)cc(NC(=O)Cc2ccc(OC(C)C(=O)O)cc2)c1 (racemic)          P50e/P50c       1.9
1  CCC(C)(Oc1ccc(CC(=O)Nc2cc(C)cc(C)c2)cc1)C(=O)O (single isomer, unassigned; (+))          P50e/P50c       3.5
2  CCCC(C)(Oc1ccc(CC(=O)Nc2cc(C)cc(C)c2)cc1)C(=O)O (stereo unspecified)          P50e/P50c       2.3

(a) Cc1cc(C)cc(NC(=O)Cc2ccc(OC3(C(=O)O)CCC(C)C3)cc2)c1 (stereo unspecified)
(b) Cc1cc(C)cc(NC(=O)Cc2ccc(O[C@]3(C(=O)O)CCC[C@H]3C)cc2)c1
(c) Cc1cc(C)cc(NC(=O)Cc2ccc(O[C@@]3(C(=O)O)CCO[C@@H]3C)cc2)c1
hey, can you rank those compounds up there by P50e/P50c? biggest number first please Write the labels in rank order as requested.
b, a, c
(b: 6.1, a: 2.6, c: 1.5)
